test: chemical genetic growth profiling, strain panel (AID 1159580);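 further: tested at 20 µM; growth read once vehicle control cultures reached saturation at 30 °C; 1 = growth at the plate median or of vehicle wells; lower values mean less growth of the strain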; settings: S. cerevisiae deletion strains, growth OD, locus YNL322C, strain KRE1
Among all 5,500 compounds or so, about 2,000 (36%) were called active. About 18% were inconclusive and are not listed. No stated cut-off is given here; in the data, active means normalized growth mostly below about 0.91 (no sharp cut-off); inconclusive means no clear call, values can overlap the other calls; inactive means mostly above about 0.92. The list shows a part of the results. Where a SMILES comes first, the peptide text is derived from it. The star is where a group is joined. Cbz = O=C(OCc1ccccc1)*
Form entry, call: pick from active, inactive

Worked cases, answers included:
{"Molecule": "Cc1ccc(/C=C2\\CCc3ccccc3C2=O)o1", "Answer Label": "active"}
{"Molecule": "COc1cc(OC)c2ccc(=O)oc2c1", "Answer Label": "inactive"}

Hey, what did the test say about `COc1ccc2ccc(=O)oc2c1` ? inactive

Which outcome was entered for the molecule CCOC(=O)C1=C(N)Oc2ccc(Br)cc2C1C(C#N)C(=O)OCC (stereo unspecified) in this test? inactive

Please let me know the test result on file for CC(C)[C@H](NC(=O)OCc1ccccc1)C(=O)N[C@H](C=O)Cc1ccccc1 (Cbz-Val-Phe-aldehyde) . inactive

---

experiment: chemical genetic growth profiling, strain panel (AID 1159580); conditions: S. cerevisiae deletion strains, growth OD, locus YNL209W, strain ssb2, active compounds read low
About 2,000 (36%) of roughly 5,500 compounds were called active. Inconclusive results (about 18%) are left out. The list shows a part of the results.
Parameter Measured: normalized growth
I'd appreciate a reply containing only the number, no unit.

Below: 5 compounds and their reported normalized growth.
{"Compound": "COc1cccc2c(C)cc(=O)[nH]c12", "normalized growth": 0.991}
{"Compound": "CCC1OC(=O)[C@H](C)C(=O)[C@H](C)[C@@H](OC2O[C@H](C)C[C@H](N(C)C)[C@H]2O)[C@](C)(OC)C2(CCCn3cnc(-c4cccnc4)c3)C[C@@H](C)C(=O)[C@H](C)[C@H]3N(C2)C(=O)O[C@]13C (stereo not given in full)", "normalized growth": 0.986}
{"Compound": "Cc1[nH]ccc2c1[nH]c1cc(=O)ccc12", "normalized growth": 1}
{"Compound": "CC(CC(C(N)=O)(c1ccccc1)c1ccccc1)N(C)C (stereo not given)", "normalized growth": 0.983}
{"Compound": "COc1c2ccoc2cc2oc(=O)ccc12", "normalized growth": 0.976}

Find the measured normalized growth of `COc1ccc(-c2oc3c(CC=C(C)C)c(O[C@@H]4O[C@H](CO)[C@@H](O)[C@H](O)[C@H]4O)cc(O)c3c(=O)c2O[C@@H]2O[C@@H](C)[C@H](O)[C@@H](O)[C@H]2O)cc1` and report it. 1.03

Answer with the recorded normalized growth for the compound listed here: CC(C)c1c(O)ccc2c1CCC1C(C)(C)CCC[C@]21C (stereo not given in full) 0.689

Retrieve normalized growth measured for `CC1(C)O[C@H]2CC(=O)OC[C@]23[C@H]2CC[C@@]4(C)[C@H](c5ccoc5)OC(=O)[C@H]5O[C@]54[C@]2(C)C(=O)C[C@@H]13` and print it. 0.979

Tell us which normalized growth value is on record for `CCCCCC(=O)Cc1cc(O)cc(O)c1C(=O)Oc1cc(CC(=O)CCCCC)c(C(=O)O)c(OC)c1` 0.948

Supply normalized growth value. Item: C[C@@H]1CC[C@@]2(OC1)O[C@H]1CC3C4CC[C@H]5C[C@@H](O)CC[C@]5(C)C4CC[C@]3(C)[C@H]1[C@@H]2C (stereo not given in full) 0.983

# return recorded normalized growth for entry CC1CC[C@@]2(OC1)O[C@H]1CC3C4CC[C@@H]5C[C@@H](O)CC[C@]5(C)C4CC[C@]3(C)[C@H]1[C@@H]2C (stereo not given in full) 1.01

---

assay: chemical genetic growth profiling, strain panel (AID 1159580); settings: S. cerevisiae deletion strains, growth OD, locus YCL016C, strain dcc1, active compounds read low
The campaign covered roughly 5,500 compounds. About 2,000 (36%) were called active. Inconclusive results (about 18%) are left out. Some of the results follow.
Items are presented alongside their recorded normalized growth.
// print number alone

{"Compound": "CC(=O)OC(C)C[N+](C)(C)C (stereo not given)", "normalized growth": 1.01}

Please give measured normalized growth of the following entry: C[C@]12CCC3c4ccc(O)cc4CCC3C1C[C@@H](O)[C@@H]2O (stereo not given in full) 1.05

Respond only with normalized growth recorded for `Cc1cc(C2CCCCC2)n(O)c(=O)c1` 0.0719

Supply measured normalized growth of C[C@@H]1CC[C@@]2(OC1)OC1CC3C4CC=C5C[C@@H](O)CC[C@]5(C)C4CC[C@]3(C)C1[C@@H]2C (stereo not given in full) in your reply. 0.996

Give reported normalized growth value for CC1CC[C@]2(NC1)O[C@H]1CC3C4CC[C@H]5C[C@@H](O)CC[C@]5(C)C4CC[C@]3(C)[C@H]1[C@@H]2C (stereo not given in full) 0.103

Give me measured normalized growth, please, for this compound: `CC/C(=C(/CC)c1ccc(O)cc1)c1ccc(O)cc1` 0.943

Specify measured normalized growth for `NC(=O)CN1CCCC1=O` . 0.986

---

assay: chemical genetic growth profiling, strain panel (AID 1159580); settings: S. cerevisiae deletion strains, growth OD, locus YPL240C, strain hsp82, active compounds read low
About 2,000 (36%) of roughly 5,500 compounds were called active. Not shown: some 18% with an inconclusive outcome. Some of the results follow.
Parameter Measured: normalized growth

As a guide, the following entries are already answered.
{"Compound": "O=c1c(O)c(-c2ccc(O)cc2O)oc2cc(O)cc(O)c12", "normalized growth": "0.997 (inactive)"}
{"Compound": "CCCCCC(=O)Cc1cc(O)cc(O)c1C(=O)Oc1cc(CC(=O)CCCCC)c(C(=O)O)c(OC)c1", "normalized growth": "0.912 (active)"}

Note normalized growth for the compound shown: `NC(=O)c1ncn([C@@H]2O[C@H](CO)[C@@H](O)[C@H]2O)n1` 0.992 (inactive)

Could you please provide reported normalized growth for CC1O[C@@H](Oc2c(-c3ccc(O)c(O)c3)oc3cc(O)cc(O)c3c2=O)[C@H](O)[C@H](O)[C@H]1O (some centres undefined) ? Thanks! 1 (inactive)

Please report the measured normalized growth for `NC(N)=NC(=O)c1nc(Cl)c(N)nc1N` 1.02 (inactive)

---

assay: chemical genetic growth profiling, strain panel (AID 1159580);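 further: tested at 20 µM; growth read once vehicle control cultures reached saturation at 30 °C; 1 = growth at the plate median or of vehicle wells; lower values mean less growth of the strain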; details: S. cerevisiae deletion strains, growth OD, locus YML124C, strain tub3
In all, about 5,500 compounds went through this assay and about 2,000 (36%) were called active. About 18% were inconclusive and are not listed. Rule as the data show it: active = normalized growth mostly below about 0.91 (no sharp cut-off); inconclusive = no clear call, values can overlap the other calls; inactive = mostly above about 0.92. The list shows a part of the results.
Return exactly one item of active, inactive

Known results for compounds:
{"Compound": "Oc1ccc2c(c1)OCC1(O)Cc3cc(O)c(O)cc3C21 (stereo not given)", "Answer Label": "inactive"}
{"Compound": "Oc1cc2c(cc1O)C1c3ccc(O)c(O)c3OCC1(O)C2 (stereo not given)", "Answer Label": "inactive"}
{"Compound": "COc1ccc2c(c1)CCC1C2CC[C@@]2(C)C1CC[C@@H]2O (stereo not given in full)", "Answer Label": "inactive"}
{"Compound": "CC(=O)Oc1ccc2c(c1OC(C)=O)OCC1(O)Cc3c(cc(OC(C)=O)c(OC(C)=O)c3OC(C)=O)C21 (stereo not given)", "Answer Label": "inactive"}

As a next step, examine the compound that follows.
Can you look up the reported call for CC12CCC3c4ccc(OCc5ccccc5)cc4CCC3C1C[C@@H](O)[C@@H]2O (stereo not given in full) for me? active

---

experiment: chemical genetic growth profiling, strain panel (AID 1159580);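 further: tested at 20 µM; growth read once vehicle control cultures reached saturation at 30 °C; 1 = growth at the plate median or of vehicle wells; lower values mean less growth of the strain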; conditions: S. cerevisiae deletion strains, growth OD, locus YLR268W, strain sec22, active compounds read low
Screen size: about 5,500 compounds; about 2,000 (36%) were called active. About 18% were inconclusive and are not listed. This is one part of the list.
The compounds listed here are annotated with their normalized growth.

Quote normalized growth reported for O=C1C=C2C(=CCOC2O)O1 (stereo unspecified) please. 0.794 (active)

---

assay: chemical genetic growth profiling, strain panel (AID 1159580);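 further: tested at 20 µM; growth read once vehicle control cultures reached saturation at 30 °C; 1 = growth at the plate median or of vehicle wells; lower values mean less growth of the strain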; conditions: S. cerevisiae deletion strains, growth OD, locus YPR106W, strain ISR1, active compounds read low
The campaign covered roughly 5,500 compounds. About 2,000 (36%) were called active. About 18% were inconclusive and are not listed. This is one part of the list.
Parameter Measured: normalized growth

Consider the reported normalized growth for these compounds:
{"Compound": "O/N=C(/c1ccc(Cl)cc1)c1cc2ccccc2o1", "Assay Value": "0.946 (inactive)"}
{"Compound": "Oc1c(Cl)cc(Cl)cc1C=Nc1ccc(Sc2ccccc2)nc1Sc1ccccc1", "Assay Value": "0.956 (inactive)"}
{"Compound": "Cc1cc(Oc2ccc(C(F)(F)F)cc2NS(C)(=O)=O)cc(C)c1Cl", "Assay Value": "0.985 (inactive)"}
{"Compound": "Oc1c(Cl)cc(Cl)cc1/C=N\\NC(=S)Nc1cc(C(F)(F)F)cc(C(F)(F)F)c1", "Assay Value": "0.922 (inactive)"}
{"Compound": "COc1cc(Br)cc(C=Nc2ccc(Sc3ccccc3)nc2Sc2ccccc2)c1O", "Assay Value": "0.957 (inactive)"}
{"Compound": "COc1ccc(/C=C2/C(=O)Nc3ccccc32)cc1", "Assay Value": "0.892 (active)"}
{"Compound": "O=C1Nc2ccccc2/C1=C\\c1cccc([N+](=O)[O-])c1", "Assay Value": "0.973 (inactive)"}
{"Compound": "CC(C)(C)C(=O)NC(=S)N/N=C\\c1cc(Cl)cc(Cl)c1O", "Assay Value": "0.969 (inactive)"}

Answer with reported normalized growth of OC1(C(F)(F)F)CC(c2ccc3ccccc3c2)=NN1 (stereo unspecified) 0.586 (active)

Supply normalized growth value. Item: `O=C1/C(=C/c2ccccn2)CCc2ccccc21` 0.96 (inactive)

For the compound `FC(F)(F)c1cccc(NC(=S)NN=C2CCCCCC2)c1` , give its measured normalized growth value. 0.994 (inactive)

Give a short answer stating reported normalized growth for `Oc1c(Br)cc(Br)cc1/C=N\n1cnnc1` . 0.918 (inactive)

Retrieve normalized growth measured for `Oc1c(Br)cc(Br)cc1C=Nc1ccccn1` and print it. 0.962 (inactive)

Give a short answer stating reported normalized growth for `O=[N+]([O-])c1cc(Cl)cc([N+](=O)[O-])c1Nc1ccccc1` . 0.949 (inactive)

Respond only with normalized growth recorded for `CCOC(=O)N/N=C\c1cc(Cl)cc(Cl)c1O` 0.918 (inactive)
